biological target: hT2R14 (Homo sapiens (Human)); experiment: hT2R panel inhibition, transient HEK293 G16g44, agonist Aristolochic Acid 2 μM; assay type: cell-based; details: HEK293, compound at 25 μM; receptor activated to EC80 with the corresponding agonist; read-out: screening result against bitter receptor 14
Sequence (Q9NYV8 whole entry): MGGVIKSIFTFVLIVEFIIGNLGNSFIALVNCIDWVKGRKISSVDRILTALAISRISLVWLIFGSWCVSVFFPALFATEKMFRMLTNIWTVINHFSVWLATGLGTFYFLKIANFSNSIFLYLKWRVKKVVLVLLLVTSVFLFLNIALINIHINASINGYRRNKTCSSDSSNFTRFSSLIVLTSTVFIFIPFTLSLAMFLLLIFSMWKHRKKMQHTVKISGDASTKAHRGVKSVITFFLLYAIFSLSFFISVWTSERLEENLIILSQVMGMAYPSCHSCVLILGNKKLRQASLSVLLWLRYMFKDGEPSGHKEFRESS
attribute.measured: inhibition at 25 µM

>>> df
                           structure_string   attribute_measured  test_result
0  COc1ccc(CN(Cc2ccccc2)S(=O)(=O)c2ccc(C(=O)O)cc2)c(OC)c1  inhibition at 25 µM        > 80%
1  COc1ccc(CN(Cc2cccc(F)c2)S(=O)(=O)c2ccc(C(=O)O)cc2)cc1  inhibition at 25 µM        > 80%
2  CCOc1ccc(CN(Cc2ccco2)S(=O)(=O)c2ccc(C(=O)O)cc2)cc1  inhibition at 25 µM        > 80%
3  COc1cc(OC)c(CN(Cc2ccccc2)S(=O)(=O)c2ccc(C(=O)O)cc2)c(OC)c1  inhibition at 25 µM        > 80%
4  Cc1ccc(CN(Cc2ccccc2)S(=O)(=O)c2ccc(C(=O)O)cc2)cc1  inhibition at 25 µM    60 to 80%
5  CSc1ccc(CN(Cc2ccccc2)S(=O)(=O)c2ccc(C(=O)O)cc2)cc1  inhibition at 25 µM        > 80%

====

In this section we review reported inhibition at 25 µM values for a set of compounds.
target: hT2R51 (Homo sapiens (Human), UniProt P59533); assay: hT2R panel inhibition, transient HEK293 G16g44, agonist Prop 2.5 μM; type: cell-based; conditions: HEK293, compound at 25 μM; receptor activated to EC80 with the corresponding agonist; read-out: screening result against bitter receptor 51
Sequence (P59533 whole entry): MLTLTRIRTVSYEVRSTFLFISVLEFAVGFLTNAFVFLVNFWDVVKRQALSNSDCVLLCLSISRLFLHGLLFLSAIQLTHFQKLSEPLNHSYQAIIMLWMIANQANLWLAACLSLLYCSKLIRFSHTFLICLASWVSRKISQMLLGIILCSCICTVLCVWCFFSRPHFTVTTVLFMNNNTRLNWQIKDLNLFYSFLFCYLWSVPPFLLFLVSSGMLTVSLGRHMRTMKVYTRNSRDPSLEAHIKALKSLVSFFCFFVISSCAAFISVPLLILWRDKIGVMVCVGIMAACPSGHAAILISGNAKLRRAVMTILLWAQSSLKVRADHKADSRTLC
attribute.measured: inhibition at 25 µM

>>> print(df.to_string())
                            structure_string                                 tested_on  test_result
 0  N#Cc1cccc(CN(Cc2ccccc2)S(=O)(=O)c2ccc(C(=O)O)cc2)c1  hT2R51 (Homo sapiens (Human), UniProt P59533)    20 to 40%
 1  COc1ccc(CN(Cc2cccc(OC)c2)S(=O)(=O)c2ccc(C(=O)O)cc2)cc1  hT2R51 (Homo sapiens (Human), UniProt P59533)    20 to 40%
 2  COc1ccc(CN(Cc2ccc(OC)cc2)S(=O)(=O)c2ccc(C(=O)O)cc2)cc1  hT2R51 (Homo sapiens (Human), UniProt P59533)    40 to 60%
 3  COc1cccc(CN(Cc2ccccc2)S(=O)(=O)c2ccc(C(=O)O)cc2)c1  hT2R51 (Homo sapiens (Human), UniProt P59533)    40 to 60%
 4  COc1ccc(CN(Cc2ccccc2)S(=O)(=O)c2ccc(C(=O)O)cc2)cc1  hT2R51 (Homo sapiens (Human), UniProt P59533)    60 to 80%
 5  O=C(O)c1ccc(S(=O)(=O)N(Cc2ccccc2)Cc2ccc(Cl)cc2)cc1  hT2R51 (Homo sapiens (Human), UniProt P59533)    40 to 60%
 6  COc1ccc(CN(Cc2ccco2)S(=O)(=O)c2ccc(C(=O)O)cc2)cc1  hT2R51 (Homo sapiens (Human), UniProt P59533)    40 to 60%
 7  O=C(O)c1ccc(CN(Cc2cccc(F)c2)S(=O)(=O)c2ccccc2)cc1  hT2R51 (Homo sapiens (Human), UniProt P59533)    20 to 40%
 8  CCCOc1ccc(CN(Cc2ccco2)S(=O)(=O)c2ccc(C(=O)O)cc2)cc1  hT2R51 (Homo sapiens (Human), UniProt P59533)    40 to 60%
 9  O=C(O)c1ccc(S(=O)(=O)N(Cc2ccccc2)Cc2ccco2)cc1  hT2R51 (Homo sapiens (Human), UniProt P59533)    20 to 40%
10  Cc1cccc(CN(Cc2ccccc2)S(=O)(=O)c2ccc(C(=O)O)cc2)c1  hT2R51 (Homo sapiens (Human), UniProt P59533)        > 80%
11  COc1ccc(CN(Cc2ccoc2)S(=O)(=O)c2ccc(C(=O)O)cc2)cc1  hT2R51 (Homo sapiens (Human), UniProt P59533)    40 to 60%
12  O=C(O)c1ccc(S(=O)(=O)N(Cc2ccccc2)Cc2ccccc2F)cc1  hT2R51 (Homo sapiens (Human), UniProt P59533)    20 to 40%

====

In this section we review reported pIC50 values for a set of compounds.
target: hT2R8 (Homo sapiens (Human)); assay: hT2R8 antagonist high-throughput FLIPR assay, stable cell line with G16g44, agonist andrographolide; type: cell-based; conditions: table after Example 10-97; read-out: hT2R8 IC50
Sequence (Q9NYW2 whole entry): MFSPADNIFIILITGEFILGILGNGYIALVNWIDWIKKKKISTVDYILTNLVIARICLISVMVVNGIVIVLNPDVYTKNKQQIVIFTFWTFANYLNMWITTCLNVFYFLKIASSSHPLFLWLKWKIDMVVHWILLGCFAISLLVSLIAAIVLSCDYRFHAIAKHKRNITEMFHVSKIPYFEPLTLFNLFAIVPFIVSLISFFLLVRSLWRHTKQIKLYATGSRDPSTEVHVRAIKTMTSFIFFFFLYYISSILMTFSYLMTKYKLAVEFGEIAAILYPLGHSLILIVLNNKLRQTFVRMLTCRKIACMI
pIC50: −log10 of the molar value.
attribute.measured: pIC50

>>> df
                                    compound  attribute_measured  test_result
 0  COC(=O)c1cccc(CN2CC(=O)N(c3cnn(Cc4c(C)noc4C)c3)C2=O)c1 [Example 10-7]               pIC50         6.99
 1  COc1cccc(CC2NC(=O)N(c3cnn(Cc4c(C)noc4C)c3)C2=O)c1 (stereo not shown) [Example 10-56]               pIC50         6.88
 2  Cc1noc(C)c1Cn1cc(N2C(=O)CN(CCCc3ccccc3)C2=O)cn1 [Example 10-94]               pIC50         7.17
 3  Cc1noc(C)c1Cn1cc(N2C(=O)CN(Cc3ccccc3F)C2=O)cn1 [Example 10-21]               pIC50         7.05
 4  Cc1noc(C)c1Cn1cc(N2C(=O)CN(Cc3cccc(CN(C)C)c3)C2=O)cn1 [Example 10-37]               pIC50         5.91
 5  Cc1noc(C)c1Cn1cc(-n2c(=O)n(C)n(Cc3ccccc3)c2=O)cn1 [Example 10-65]               pIC50         7.72
 6  Cc1noc(C)c1Cn1cc(N2C(=O)CN(CCc3cccc4ccccc34)C2=O)cn1 [Example 10-80]               pIC50         6.03
 7  COc1ccc(CN2CC(=O)N(c3cnn(Cc4c(C)noc4C)c3)C2=O)cc1 [Example 10-29]               pIC50         5.51
 8  Cc1noc(C)c1Cn1cc(N2C(=O)CN(CCc3cccc(F)c3)C2=O)cn1 [Example 10-77]               pIC50         7.19
 9  COc1ccc(CN2CC(=O)N(c3cnn(Cc4c(C)noc4C)c3)C2=O)cc1OC [Example 10-35]               pIC50         7.29
10  Cc1noc(C)c1Cn1cc(N2C(=O)CN(Cc3ccn(C)n3)C2=O)cn1 [Example 10-38]               pIC50         6.44
11  COc1ccccc1CN1CC(=O)N(c2cnn(Cc3c(C)noc3C)c2)C1=O [Example 10-18]               pIC50         7.22
12  Cc1noc(C)c1Cn1cc(N2C(=O)CN(Cc3ccccc3C#N)C2=O)cn1 [Example 10-19]               pIC50         6.26
13  Cc1noc(C)c1CN1CC(=O)N(c2cnn(Cc3c(C)noc3C)c2)C1=O [Example 10-55]               pIC50         6.32
14  CCCn1c(=O)n(-c2cnn(Cc3c(C)noc3C)c2)c(=O)n1Cc1ccccc1 [Example 10-93]               pIC50         7.21
15  Cc1noc(C)c1Cn1cc(N2C(=O)NC(Cc3ccc(O)cc3)C2=O)cn1 (stereo not shown) [Example 10-59]               pIC50         6.49
16  Cc1noc(C)c1Cn1cc(N2C(=O)CN(Cc3cccc(O)c3)C2=O)cn1 [Example 10-10]               pIC50         7.59
17  Cc1noc(C)c1Cn1cc(N2CCN(Cc3ccccc3)C2=O)cn1 [Example 10-88]               pIC50         5.90
18  Cc1noc(C)c1Cn1cc(N2CN(Cc3ccccc3)CN(CCc3ccccc3)C2=O)cn1 [Example 9-7]               pIC50         5.18
19  COc1cccc(CN2CC(=O)N(c3cnn(Cc4c(C)noc4C)c3)C2=O)c1 [Example 10-6]               pIC50         7.14
20  Cc1noc(C)c1Cn1cc(N2C(=O)CN(Cc3ccccc3)C2=O)cn1 [Example 10-53]               pIC50         6.59
21  CCn1c(=O)n(-c2cnn(Cc3c(C)noc3C)c2)c(=O)n1Cc1ccccc1 [Example 10-91]               pIC50         7.39
22  COCCOc1cccc(CN2CC(=O)N(c3cnn(Cc4c(C)noc4C)c3)C2=O)c1 [Example 10-14]               pIC50         7.15
23  COCCOc1ccccc1CN1CC(=O)N(c2cnn(Cc3c(C)noc3C)c2)C1=O [Example 10-16]               pIC50         6.88
24  Cc1noc(C)c1Cn1cc(N2C(=O)CN(Cc3ccc4c(c3)OCO4)C2=O)cn1 [Example 10-36]               pIC50         7.28
